TARGET_OF_ASSAY: HEK cells stably transfected with tetracycline inducible hNR1 and hNR2A (Homo sapiens, UniProt Q05586+Q12879)
Construct: expressed in transfected cells; host or cells: HEK cells, stably transfected, tetracycline/doxycycline inducible
Sequence (Q12879 23-1464, other chains not shown): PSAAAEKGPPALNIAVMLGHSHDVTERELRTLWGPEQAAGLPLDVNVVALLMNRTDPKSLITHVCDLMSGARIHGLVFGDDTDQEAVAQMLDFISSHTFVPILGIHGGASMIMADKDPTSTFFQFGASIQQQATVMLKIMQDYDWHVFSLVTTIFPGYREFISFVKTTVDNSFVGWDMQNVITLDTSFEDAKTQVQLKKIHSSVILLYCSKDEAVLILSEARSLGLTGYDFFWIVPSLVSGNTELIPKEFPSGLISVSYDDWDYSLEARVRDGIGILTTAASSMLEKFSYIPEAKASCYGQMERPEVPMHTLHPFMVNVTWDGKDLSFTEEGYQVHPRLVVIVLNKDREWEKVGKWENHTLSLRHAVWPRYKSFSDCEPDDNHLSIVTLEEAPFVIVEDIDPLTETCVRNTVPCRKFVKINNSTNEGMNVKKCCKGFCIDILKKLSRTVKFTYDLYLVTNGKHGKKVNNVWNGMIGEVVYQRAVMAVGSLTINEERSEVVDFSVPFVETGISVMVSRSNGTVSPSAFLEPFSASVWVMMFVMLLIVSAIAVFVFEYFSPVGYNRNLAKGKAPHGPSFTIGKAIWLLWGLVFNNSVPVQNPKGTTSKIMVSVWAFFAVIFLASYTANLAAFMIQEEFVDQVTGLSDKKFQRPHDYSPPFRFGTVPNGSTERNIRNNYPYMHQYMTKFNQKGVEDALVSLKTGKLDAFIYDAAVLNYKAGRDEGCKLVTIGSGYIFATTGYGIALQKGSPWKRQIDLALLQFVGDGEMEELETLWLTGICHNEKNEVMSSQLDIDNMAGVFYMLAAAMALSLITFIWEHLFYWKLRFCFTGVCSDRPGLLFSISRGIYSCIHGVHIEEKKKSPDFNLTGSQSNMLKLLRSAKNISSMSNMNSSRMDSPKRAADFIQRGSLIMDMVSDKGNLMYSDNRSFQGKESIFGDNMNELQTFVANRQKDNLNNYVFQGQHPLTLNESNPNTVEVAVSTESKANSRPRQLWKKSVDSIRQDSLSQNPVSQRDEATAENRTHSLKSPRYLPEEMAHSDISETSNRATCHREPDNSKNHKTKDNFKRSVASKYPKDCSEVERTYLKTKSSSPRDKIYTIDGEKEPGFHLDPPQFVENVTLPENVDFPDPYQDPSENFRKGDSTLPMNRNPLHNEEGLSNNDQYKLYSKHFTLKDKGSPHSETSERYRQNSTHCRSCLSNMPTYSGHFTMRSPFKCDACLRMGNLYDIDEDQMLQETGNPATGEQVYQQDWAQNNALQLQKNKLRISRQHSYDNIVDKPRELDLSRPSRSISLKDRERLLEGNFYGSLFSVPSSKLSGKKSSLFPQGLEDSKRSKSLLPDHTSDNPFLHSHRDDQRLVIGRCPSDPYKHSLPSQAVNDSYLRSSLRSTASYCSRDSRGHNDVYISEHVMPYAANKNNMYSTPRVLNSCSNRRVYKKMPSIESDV
EXPERIMENT_SUMMARY: Assay 1: Cell-Based Assay, cytosolic calcium response to positive allosteric modulators (with 30 μM glycine and 300 nM L-glutamate, EC30)
MEASUREMENT_CONTEXT: Table 3; cytosolic calcium response, with 30 μM glycine and 300 nM L-glutamate (EC30); — = no plateau was reached
READOUT_KIND: pEC50
The read-out pEC50 is expressed as -log10 of concentration in moles per litre.

- MOLECULE: "CCNC(=O)c1c(Cl)sc2nc(Cc3cccc(C(F)(F)F)c3F)cc(=O)n12 [compound 60]"
  pEC50: 5.49
- MOLECULE: "Cc1sc2nc(Cc3cccc(C(F)(F)F)c3F)cc(=O)n2c1C(=O)NCC(F)(F)F [compound 51]"
  pEC50: 5.50
- MOLECULE: "O=c1cc(Cn2nc(C(F)(F)F)cc2Cl)nc2sc(C(F)(F)F)c(C3CC3CO)n12 (single isomer, unassigned) [compound 270]"
  pEC50: 6.29

Please examine the following record next.
Check the records and state pEC50 for Cc1sc2nc(Cn3nc(C(F)(F)F)cc3Br)cc(=O)n2c1[C@@H]1C[C@@H]1C#N (single isomer, unassigned) [compound 274] 7.92
